Assay Overview: Liver microsome half-life assay, mouse
Type: in vitro ADME
Test Context: liver microsomes, 1 mg/mL liver microsomal protein, 37° C., read-out: Liver microsome T½ (min) Mouse
Endpoint: half-life (min)

# Molecule, Endpoint, Numeric Result
rows = [
    ("O=c1[nH]ncc(N2CCc3c(ncn3Cc3ccccc3C(F)(F)F)C2)c1Cl [Compound C001, reference compound]", "half-life", 60),
    ("O=c1[nH]ncc(N2CCc3c(ncn3Cc3ccc(F)cc3C(F)(F)F)C2)c1Cl [Compound C002, reference compound]", "half-life", 115),
    ("O=c1[nH]ncc(N2CCn3c(Cc4ccccc4C(F)(F)F)cnc3C2)c1Cl", "half-life", 154),
    ("N#Cc1ccc(Cc2cnc3n2CCN(c2cn[nH]c(=O)c2Cl)C3)c(C(F)(F)F)c1", "half-life", 167),
]

1: O=c1[nH]ncc(N2CCn3c(Cc4ccc(F)cc4C(F)(F)F)cnc3C2)c1Cl
2: O=C(c1ccc(F)cc1C(F)(F)F)c1cnc2n1CCN(c1cn[nH]c(=O)c1Cl)C2
3: O=c1[nH]ncc(N2CCn3c(Cc4cc(F)ccc4C(F)(F)F)cnc3C2)c1Cl
Query block: Put the entries in order of half-life, starting with the largest number. Rank the items, then write their labels in that order.
Result block: 1, 3, 2

* * *

Assay Overview: Tissue distribution in CD-1 mice after single intragastric administration
Type: in vivo
Test Context: mouse, kidney, oral; male CD-1 mice, 10 mg/kg intragastric, 10 hours; read-out: kidney, times of the plasma concentration
Endpoint: Kp at 10 h
Lab note: jot the number down without any unit.

Query block: Recorded Kp at 10 h for O=C(c1ccc(F)cc1C(F)(F)F)c1cnc2n1CCN(c1cn[nH]c(=O)c1Cl)C2 [Compound 1-6] , please?
Result block: 1.5

* * *

Assay Overview: Tissue distribution in CD-1 mice after single intragastric administration
Type: in vivo
Test Context: mouse, brain, oral; male CD-1 mice, 10 mg/kg intragastric, 10 hours; read-out: brain, times of the plasma concentration
Method: Mice: CD-1 mice, SPF grade, 9, male, weighting 18 to 22 g (source: SPF (Beijing) Biotechnology Co., Ltd., certificate number: 110324200103036532). […] After the blood was taken, the abdominal cavity was quickly opened, and the abdominal aorta and vein of the rat were cut. […] If it could not be analyzed the same day, it was stored at −80° C. until further testing (be careful not to perform multiple thawing/freezing processes). […]
Endpoint: Kp at 10 h
API note: the answer field is a bare number with no unit suffix.

Query block: So what's the measured Kp at 10 h for this one? O=C(c1ccc(F)cc1C(F)(F)F)c1cnc2n1CCN(c1cn[nH]c(=O)c1Cl)C2 [Compound 1-6]
Result block: 0.09

* * *

Assay Overview: Liver microsome half-life assay, human
Format: in vitro ADME
Test Context: human, liver microsomes; 1 mg/mL liver microsomal protein, 37° C.; read-out: Liver microsome T½ (min) Human
Endpoint: half-life (min)

# Compound, Unit Symbol, half-life
data = [
    ("O=c1[nH]ncc(N2CCc3c(ncn3Cc3ccccc3C(F)(F)F)C2)c1Cl [Compound C001, reference compound]", "min", 54),
    ("O=c1[nH]ncc(N2CCn3c(Cc4ccccc4C(F)(F)F)cnc3C2)c1Cl [Compound L001]", "min", 173),
]

1: N#Cc1ccc(Cc2cnc3n2CCN(c2cn[nH]c(=O)c2Cl)C3)c(C(F)(F)F)c1 [Compound L014]
2: O=C(c1ccc(F)cc1C(F)(F)F)c1cnc2n1CCN(c1cn[nH]c(=O)c1Cl)C2 [Compound 1-6]
Query block: Identify the entry with the larger half-life. Options: 1 and 2 // return label of chosen record
Result block: 1

1: O=c1[nH]ncc(N2CCn3c(Cc4ccc(F)cc4C(F)(F)F)cnc3C2)c1Cl [Compound L002]
2: O=c1[nH]ncc(N2CCc3c(ncn3Cc3ccc(F)cc3C(F)(F)F)C2)c1Cl [Compound C002, reference compound]
Query block: Given the two records 1 and 2 , choose the one whose half-life value is lower. Your choice should be expressed through its label.
Result block: 2

* * *

Assay Overview: Tissue distribution in CD-1 mice after single intragastric administration
Type: in vivo
Test Context: mouse, kidney, oral; male CD-1 mice, 10 mg/kg intragastric, 20% solutol, 0.167 hours; read-out: concentration in kidney
Endpoint: concentration at 0.167 h (ng/g)
Note: unit ng/g is implicit; provide only the numeric part.

Query block: Dear colleague, I am looking for the recorded concentration at 0.167 h of the following compound: O=C(c1ccc(F)cc1C(F)(F)F)c1cnc2n1CCN(c1cn[nH]c(=O)c1Cl)C2
Result block: 1470

* * *

Assay Overview: PK study of male SD rats after single intragastric administration (5% solutol)
Format: in vivo
Test Context: male, SD, rat, plasma, po, 100 mg/kg, single PO compound 1-6 100 mg/kg, analyte compound 1-6, animal 5
Endpoint: half-life (h)
Kindly provide the numeric value in h only, without the unit symbol.

Query block: Form field: reported half-life of O=C(c1ccc(F)cc1C(F)(F)F)c1cnc2n1CCN(c1cn[nH]c(=O)c1Cl)C2
Result block: 4.09

* * *

Assay Overview: PK study of male SD rats after single intragastric administration (5% solutol)
Assay type: in vivo
Test Context: male, SD, rat, plasma, po, 100 mg/kg, single PO compound 1-6 100 mg/kg, analyte compound 1-6, animal 4
Endpoint: Cmax (ng/mL)
Your answer is read as ng/mL, so omit the unit and give the number.

Query block: Record request: Cmax value, item O=C(c1ccc(F)cc1C(F)(F)F)c1cnc2n1CCN(c1cn[nH]c(=O)c1Cl)C2 [Compound 1-6]
Result block: 1210

* * *

Assay Overview: PK study of male SD rats after single intragastric administration (5% solutol)
Type: in vivo
Test Context: male, SD, rat, plasma, po, 100 mg/kg, single PO compound 1-6 100 mg/kg, analyte compound 1-6, mean value
Endpoint: MRT last (h)
Quick reminder: number only, in h, skip the unit.

Query block: Dear colleague, I am looking for the recorded MRT last of the following compound: O=C(c1ccc(F)cc1C(F)(F)F)c1cnc2n1CCN(c1cn[nH]c(=O)c1Cl)C2 [Compound 1-6]
Result block: 8.15

* * *

Assay Overview: Pharmacokinetic study in mice in vivo (gavage and tail vein injection)
Test Context: mouse, plasma, iv, dose 1 mg/kg
Endpoint: Cmax (ng/mL)

# Smiles Repr, Unit Symbol, Cmax
rows = [
    ("O=c1[nH]ncc(N2CCn3c(Cc4ccc(F)cc4C(F)(F)F)cnc3C2)c1Cl", "ng/mL", 833),
]

A: N#Cc1ccc(Cc2cnc3n2CCN(c2cn[nH]c(=O)c2Cl)C3)c(C(F)(F)F)c1
B: O=C(c1ccc(F)cc1C(F)(F)F)c1cnc2n1CCN(c1cn[nH]c(=O)c1Cl)C2
C: O=c1[nH]ncc(N2CCn3c(Cc4ccccc4C(F)(F)F)cnc3C2)c1Cl
Query block: Arrange by Cmax, high to low. Answer by writing out the labels in the requested order.
Result block: B, A, C

* * *

Assay Overview: Tissue distribution in CD-1 mice after single intragastric administration
Format: in vivo
Test Context: mouse, brain, oral; male CD-1 mice, 10 mg/kg intragastric, 20% solutol, 1 hour
Endpoint: concentration at 1 h (ng/g)
The response must be a number in ng/g with no trailing unit.

Query block: Look up concentration at 1 h: O=C(c1ccc(F)cc1C(F)(F)F)c1cnc2n1CCN(c1cn[nH]c(=O)c1Cl)C2
Result block: 161

* * *

Assay Overview: Pharmacokinetic study in mice in vivo (gavage and tail vein injection)
Test Context: mouse, plasma, iv, dose 1 mg/kg
Endpoint: AUC(0-t) (ng·h/mL)

# Smiles Repr, AUC(0-t) / ng·h/mL
records = [
    ("O=c1[nH]ncc(N2CCn3c(Cc4ccc(F)cc4C(F)(F)F)cnc3C2)c1Cl", 1450),
]

I: N#Cc1ccc(Cc2cnc3n2CCN(c2cn[nH]c(=O)c2Cl)C3)c(C(F)(F)F)c1
II: O=C(c1ccc(F)cc1C(F)(F)F)c1cnc2n1CCN(c1cn[nH]c(=O)c1Cl)C2
III: O=c1[nH]ncc(N2CCn3c(Cc4ccccc4C(F)(F)F)cnc3C2)c1Cl
Query block: Sort (3 compounds) by AUC(0-t): min first. Please list the labels according to the requested order.
Result block: III, I, II

* * *

Assay Overview: PK study of male SD rats after single intragastric administration (5% solutol)
Format: in vivo
Test Context: male, SD, rat, plasma, po, 100 mg/kg, single PO compound 1-6 100 mg/kg, analyte compound 1-6, mean value
Protocol: Effect Example 2: PK Study of Male SD Rats after Single Intragastric Administration of Compound (Using 5% Solutol as a Solvent) […] After administration to rats, blood was collected from the orbital venous plexus according to the sampling time points. […] Hemolysis was observed and recorded, and the sample was sent to bioassay for testing. If the sample could not be analyzed the same day, the sample was stored at −80° C. until further testing (be careful not to perform multiple freezing/thawing processes). […]
Endpoint: AUC(0-t) (ng·h/mL)
Just the number please, in ng·h/mL, no unit attached.

Query block: Any idea what its AUC(0-t) is? The compound is O=C(c1ccc(F)cc1C(F)(F)F)c1cnc2n1CCN(c1cn[nH]c(=O)c1Cl)C2
Result block: 14300
